Test system: E-tag antibody
experimentalProtocol: ELISA analysis of phage on antibody raised against ETAG (positive control)
conditionDetails: peptide binding to E-tag antibody; phage ELISA units read at 405 nm
Assign class by ETAG (OD): not lower than 20 OD means Fulfilled; lower than 20 OD means Not fulfilled.

inputsequence="DRVARLATPTAGTMAAGSLGYERTVGCDSQDWFRCVVEGL (DGI-2-40F-3-D1044; listed as Escherichia coli)" classassignment="Not fulfilled"
inputsequence="SIVSSRSGWQRGWIAWEAPV (SIVSSRSGWQRGWIAWFAPV; DGI-2-20F-PP-E5; listed as Escherichia coli)" classassignment=Fulfilled
inputsequence="RSIRLQLIDEACQFFDGLCT (DGI-2-20R-3-A8; listed as Escherichia coli)" classassignment="Not fulfilled"
inputsequence="WWERFVWGRPVDDGVVVMAT (DGI-2-20R-3-B1; listed as Escherichia coli)" classassignment="Not fulfilled"
inputsequence="GGDLGEQGVQLCPDVVRGGSL (DGI-2-20F-PP-A7; listed as Escherichia coli)" classassignment=Fulfilled
inputsequence="RWSLPAYLCRFVSQASCNSR (DGI-2-20R-3-C12; listed as Escherichia coli)" classassignment="Not fulfilled"
inputsequence="LSVFRPGQFPHVGARGVSRT (DGI-2-20R-4-G32; listed as Escherichia coli)" classassignment="Not fulfilled"
inputsequence="RTLFINGGCCGKGSGGGRPL (DGI-2-20F-PP-G1; listed as Escherichia coli)" classassignment=Fulfilled
inputsequence="SSVWATWGSDLRTFGSVGFL (DGI-2-20F-PP-C7; listed as Escherichia coli)" classassignment="Not fulfilled"
inputsequence="DRHRAFVAEGLDGFRHSTGV (DGI-2-20F-PP-D4; listed as Escherichia coli)" classassignment=Fulfilled
inputsequence="LWLPCGLLVRPAQFYFYFSPLRHFLSSSVGSLSFPLSLLV (DGI-2-40F-3-B4; listed as Escherichia coli)" classassignment="Not fulfilled"
inputsequence="PVYRVAMCRISVGCSAGAWF (DGI-2-20F-PP-C12; listed as Escherichia coli)" classassignment=Fulfilled
inputsequence="WWREWVDGSLRGGGGTVLKD (DGI-2-20R-3-A122; listed as Escherichia coli)" classassignment="Not fulfilled"
inputsequence="MFQDVACDLWHSVRCLRRDV (DGI-2-20R-3-B3; listed as Escherichia coli)" classassignment="Not fulfilled"
inputsequence="CGGWGAMWEAWVQGLNGAGC (DGI-2-20R-3-D4; listed as Escherichia coli)" classassignment="Not fulfilled"
inputsequence="VWAAWVEGSLLSPRQEPVRD (DGI-2-20R-4-G4; listed as Escherichia coli)" classassignment="Not fulfilled"
inputsequence="VLGADAGMIWFMDGCGIRCR (DGI-2-20R-4-E6; listed as Escherichia coli)" classassignment="Not fulfilled"
inputsequence="LVIQCSASVVACDLYWNYVGCLAAG (DGI-2-20C-3-D12; listed as Escherichia coli)" classassignment="Not fulfilled"
inputsequence="SYRNFAMQSSLQVRRGSVVEDGTCWWEGVRCYSG (DGI-2-40F-4-F6; listed as Escherichia coli)" classassignment="Not fulfilled"
inputsequence="GWSDFVATGSWSGQVSAALN (DGI-2-20R-4-F120; listed as Escherichia coli)" classassignment="Not fulfilled"
inputsequence="MAVLPAARDFGGVVQGGVSG (DGI-2-20F-3-C2; listed as Escherichia coli)" classassignment="Not fulfilled"
inputsequence="MGADTCMGGKMPFDQMFGAV (DGI-2-20F-PP-E10; listed as Escherichia coli)" classassignment=Fulfilled
inputsequence="TSCQVMFLAGQHLLSRVPRL (DGI-2-20R-3-B6; listed as Escherichia coli) [DGL-2-20R-3-B6]" classassignment="Not fulfilled"
inputsequence="WAGSTDLWQLWSLWVKPELR (DGI-2-20F-3-B7; listed as Escherichia coli)" classassignment="Not fulfilled"
inputsequence="RDHRYVGWGRATFRHDQSVW (DGI-2-20F-PP-H1; listed as Escherichia coli)" classassignment="Not fulfilled"

###

targetOfAssay: DGI-2 (Homo sapiens)
Construct: encompassed the entire DGI-2 open reading frame (ORF); His-tag of vector pIVEX2.3-MCS (inferred from the vector and from the reverse primer lacking a stop codon); made in house; host or cells: cell-free in vitro translation (Rapid Translation System RTS, Roche; E. coli lysate)
Sequence (Q15004 1-111): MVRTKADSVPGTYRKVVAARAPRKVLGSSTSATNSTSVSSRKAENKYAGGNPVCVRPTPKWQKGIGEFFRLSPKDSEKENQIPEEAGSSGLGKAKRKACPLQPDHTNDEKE
experimentalProtocol: ELISA analysis of phage on DGI-2 polypeptide (specific binding)
conditionDetails: ratio of specific binding to non-specific binding
Assign class by DGI-2/LDH (OD): not lower than 5 means satisfied; lower than 5 means not satisfied.

substance="WAASCFWGHVALGCGRNGQG (DGI-2-20R-3-A11; listed as Escherichia coli)" classassignment=satisfied
substance="MFQDVACDLWHSVRCLRRDV (DGI-2-20R-3-B3; listed as Escherichia coli)" classassignment="not satisfied"
substance="GQISLAGVAVCSSERMLLAFSSRVFLPGLKVPVTTSQRGS (DGI-2-40F-3-A8; listed as Escherichia coli)" classassignment="not satisfied"
substance="RSQVRVVSRERSTPVLIHIRIECLLFSGWCVTSGSDEGVVWG [DGI-2-40F-4-F122]" classassignment=satisfied
substance="VWAAWVEGSLLSPRQEPVRD (DGI-2-20R-4-G4; listed as Escherichia coli)" classassignment=satisfied
substance="RNWLDKDCVWMGDCGARAGE (DGI-2-20F-4-E3; listed as Escherichia coli)" classassignment="not satisfied"
substance="LTWGPQFGSLQVYSRHRGLP (DGI-2-20R-4-E4; listed as Escherichia coli)" classassignment="not satisfied"
substance="LPQSRWLSEAWASWVDGVVD (DGI-2-20F-4-F9; listed as Escherichia coli)" classassignment=satisfied
substance="DAGIGWVGSMWFPPGCIGAC (DGI-2-20R-4-E82; listed as Escherichia coli)" classassignment="not satisfied"
substance="RPVVCLAGLTLAQFGWVFPGWRGWS (DGI-2-20C-3-C1039; listed as Escherichia coli)" classassignment="not satisfied"
substance="SLECWAMPGMVVRLVGCDGP (DGI-2-20R-4-H112; listed as Escherichia coli)" classassignment=satisfied
substance="LGPAHPHGRVCRVSSS#S (LGPAHPHGRVCRVSSSS; DGI-2-20F-PP-B9; listed as Escherichia coli)" classassignment="not satisfied"
substance="LSLLSVVVRSMGASAPQRQV (DGI-2-20F-3-A7; listed as Escherichia coli)" classassignment="not satisfied"
substance="TIDVARRFGYGWWDLWLDGD (DGI-2-20R-3-C3; listed as Escherichia coli)" classassignment=satisfied
substance="RWSLPAYLCRFVSQASCNSR (DGI-2-20R-3-C12; listed as Escherichia coli)" classassignment="not satisfied"
substance="CCAWNGVGVGGLGWRVVVGP (DGI-2-20F-PP-H4; listed as Escherichia coli)" classassignment="not satisfied"
substance="GLYQRGLAPRCRGERFGVRN (DGI-2-20F-PP-C2; listed as Escherichia coli)" classassignment="not satisfied"
substance="VSFAHDWGRWWYQWEVG (DGI-2-20R-4-G22; listed as Escherichia coli)" classassignment=satisfied

###

targetOfAssay: DGI-2 (Homo sapiens, UniProt Q15004)
Construct: encompassed the entire DGI-2 open reading frame (ORF); His-tag of vector pIVEX2.3-MCS (inferred from the vector and from the reverse primer lacking a stop codon); made in house; host or cells: cell-free in vitro translation (Rapid Translation System RTS, Roche; E. coli lysate)
Sequence (Q15004 1-111): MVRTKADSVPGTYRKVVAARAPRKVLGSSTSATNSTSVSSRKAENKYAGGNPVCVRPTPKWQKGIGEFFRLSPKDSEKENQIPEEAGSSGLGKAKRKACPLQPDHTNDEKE
experimentalProtocol: ELISA analysis of phage on DGI-2 polypeptide (specific binding)
conditionDetails: ratio of specific binding to non-specific binding
reportedMetric: DGI-2/LDH (OD)

inputsequence="VGHLLSRCAHHSPGMGASPYG (DGI-2-20F-PP-B11; listed as Escherichia coli)" reportedvalue=2.7
inputsequence="MGSLGPFGNTNSLASGIGSVRNRPLLPLHGSP [DGI-2-40F-3-D72]" reportedvalue=2.8
inputsequence="FGRDGDGIQRRQGGFSWVGDR (DGI-2-20F-PP-E2; listed as Escherichia coli)" reportedvalue=2.4

###

System: E-tag antibody
experimentalProtocol: ELISA analysis of phage on antibody raised against ETAG (positive control)
conditionDetails: peptide binding to E-tag antibody; phage ELISA units read at 405 nm
Overview of recorded ETAG (OD) for various substances
reportedMetric: ETAG (OD)

substance="ERVSKCVGRGSGRSVGQFGG (DGI-2-20F-PP-F1; listed as Escherichia coli)" reportedmetric="ETAG (OD)" reportedvalue=11.1
substance="DVGAVVRSGHCASRPGE*QVR (DVGAVVRSGHCASRPGEQVR; DGI-2-20F-PP-H9; listed as Escherichia coli)" reportedmetric="ETAG (OD)" reportedvalue=13.6
substance="FGSTAYADMLSQFRKFAMNIS (DGI-2-20F-PP-E1; listed as Escherichia coli)" reportedmetric="ETAG (OD)" reportedvalue=33.4
substance="DAGIGWVGSMWFPPGCIGAC (DGI-2-20R-4-E82; listed as Escherichia coli)" reportedmetric="ETAG (OD)" reportedvalue=19.6
